Biological target: Mu Receptor (Homo sapiens, UniProt P35372)
Sequence (P35372 whole entry): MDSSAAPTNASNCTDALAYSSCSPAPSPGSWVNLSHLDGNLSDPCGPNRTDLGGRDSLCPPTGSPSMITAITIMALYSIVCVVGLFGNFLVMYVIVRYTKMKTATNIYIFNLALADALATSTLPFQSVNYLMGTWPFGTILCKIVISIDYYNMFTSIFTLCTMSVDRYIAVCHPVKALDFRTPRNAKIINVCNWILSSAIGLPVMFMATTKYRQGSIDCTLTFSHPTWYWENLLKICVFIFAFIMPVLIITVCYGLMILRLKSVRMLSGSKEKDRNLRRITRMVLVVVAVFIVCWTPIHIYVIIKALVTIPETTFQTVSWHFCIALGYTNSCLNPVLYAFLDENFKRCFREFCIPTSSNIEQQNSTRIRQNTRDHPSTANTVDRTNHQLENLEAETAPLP
Test: Functional study, agonist
parameterMeasured: EC50 (µM)
Provide only the numeric value, understood in µM.

Asked: // query EC50 value for entry C[C@@H]1SC2(CCN(C)CC2)CN1C(=O)CCc1c[nH]c2ccccc12 (single isomer, unassigned) [AF710B]
Given back: 13

---

Molecular target: UniProt P11229
Sequence (P11229 whole entry): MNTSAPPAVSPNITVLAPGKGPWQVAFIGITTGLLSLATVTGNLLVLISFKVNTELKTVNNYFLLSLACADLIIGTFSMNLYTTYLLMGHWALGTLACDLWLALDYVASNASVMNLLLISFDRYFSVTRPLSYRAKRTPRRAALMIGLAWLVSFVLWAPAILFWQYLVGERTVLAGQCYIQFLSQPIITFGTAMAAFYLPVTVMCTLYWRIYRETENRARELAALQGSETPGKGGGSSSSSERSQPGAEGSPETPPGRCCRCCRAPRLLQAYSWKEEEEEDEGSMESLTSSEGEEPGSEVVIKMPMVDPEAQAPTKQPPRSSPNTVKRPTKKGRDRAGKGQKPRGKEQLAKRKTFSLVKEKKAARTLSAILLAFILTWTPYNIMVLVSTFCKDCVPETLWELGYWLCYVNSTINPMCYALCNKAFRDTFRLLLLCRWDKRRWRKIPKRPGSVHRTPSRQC
Assay: Intracellular Ca2+ mobilization (Fluo-4 NW) in cells stably transfected with M1 mAChR
Type: cell-based
Parameters: expressed in transfected cells
Settings: 100 μM; remaining carbachol-induced effect; read-out: Antagonist at 100 μM on M1 mAChR inhibiting carbachol-induced effects from 100% to
parameterMeasured: activity at 100 µM

Solved cases below.
{"molecule": "CCC(=O)N1CC2(CCN(C)CC2)SC1C (stereo not shown)", "subjectOfTest": "UniProt P11229", "activity at 100 µM": "< 50%"}
{"molecule": "CCCC(CCC)C(=O)N1CC2(CCN(C)CC2)SC1C (stereo not shown)", "subjectOfTest": "UniProt P11229", "activity at 100 µM": "< 25%"}
{"molecule": "CC1SC2(CCN(C)CC2)CN1C(=O)c1cc(C(C)(C)C)c(O)c(C(C)(C)C)c1 (stereo not shown)", "subjectOfTest": "UniProt P11229", "activity at 100 µM": "< 50%"}

Asked: // query activity at 100 µM value for entry CC1SC2(CCN(C)CC2)CN1C(=O)CCCc1c[nH]c2ccccc12 (stereo not shown)
Given back: < 50%

The reported measurements were obtained from patent US9034891B2.
